meta.source: patent US5750538A

assayed_target: squalene synthetase (Rattus norvegicus)
Construct: Rat liver microsomal preparation; from tissue; host or cells: liver microsomes of male rats (100,000 x g pellet)
measurement_description: Squalene synthetase inhibition assay in vitro (rat liver microsomal preparation, 3H-FPP)
Type: biochemical
experimental_context: maximal inhibition; rat liver microsomal enzyme, 3H-FPP 10 μM final conc.
measured_property: SQUALENE SYNTHETASE INHIBITION % max (%)
Number only, in %; omit the unit.

Example cases with answers are listed next.
# compound, assayed_target, unit_string, reported_measurement
records = [
    ("CCCCCCCSc1nsnc1C1CN2CCC1CC2 (stereo not shown)", "squalene synthetase (Rattus norvegicus)", "%", 92),
    ("c1ccc(-c2ccc(COc3nsnc3C3CN4CCC3CC4)cc2)cc1 (stereo not shown)", "squalene synthetase (Rattus norvegicus)", "%", 60),
    ("c1ccc(CCCSc2nsnc2[C@H]2CN3CC[C@@H]2C3)cc1 (relative stereo)", "squalene synthetase (Rattus norvegicus)", "%", 55),
    ("c1ccc(CCCSc2nsnc2[C@@H]2CN3CCC[C@@H]2C3)cc1 (single isomer, unassigned)", "squalene synthetase (Rattus norvegicus)", "%", 80),
    ("c1ccc(CCCSc2nsnc2[C@H]2CN3CCC[C@@H]2C3)cc1 (single isomer, unassigned)", "squalene synthetase (Rattus norvegicus)", "%", 72),
]

Query: Provide only the value of recorded SQUALENE SYNTHETASE INHIBITION % max for c1ccc(Oc2ccc(COc3nsnc3C3CN4CCC3CC4)cc2)cc1 (stereo not shown)
Reply: 83

Query: Provide only the value of recorded SQUALENE SYNTHETASE INHIBITION % max for c1ccc(CCCSc2nsnc2C2CN3CCC2CC3)cc1 (stereo not shown)
Reply: 89

----------
assayed_target: squalene synthetase (Rattus norvegicus, UniProt Q02769)
Construct: Rat liver microsomal preparation; from tissue; host or cells: liver microsomes of male rats (100,000 x g pellet)
measurement_description: Squalene synthetase inhibition assay in vitro (rat liver microsomal preparation, 3H-FPP)
Assay type: biochemical
experimental_context: rat liver microsomal enzyme, 3H-FPP 10 μM final conc., 10 min incubation at 37° C.
measured_property: log10(IC50) (log10 of the value in nM)
Transform log10 | Measure IC50 | Unit nM

Query: Fill in log10(IC50) for CCCCCCCSc1nsnc1C1CN2CCC1CC2 (centres unmarked) tested with squalene synthetase (Rattus norvegicus, UniProt Q02769).
Reply: 2.95

----------
# IC50 values compiled below
assayed_target: squalene synthetase (Rattus norvegicus)
Sequence (Q02769 1-416): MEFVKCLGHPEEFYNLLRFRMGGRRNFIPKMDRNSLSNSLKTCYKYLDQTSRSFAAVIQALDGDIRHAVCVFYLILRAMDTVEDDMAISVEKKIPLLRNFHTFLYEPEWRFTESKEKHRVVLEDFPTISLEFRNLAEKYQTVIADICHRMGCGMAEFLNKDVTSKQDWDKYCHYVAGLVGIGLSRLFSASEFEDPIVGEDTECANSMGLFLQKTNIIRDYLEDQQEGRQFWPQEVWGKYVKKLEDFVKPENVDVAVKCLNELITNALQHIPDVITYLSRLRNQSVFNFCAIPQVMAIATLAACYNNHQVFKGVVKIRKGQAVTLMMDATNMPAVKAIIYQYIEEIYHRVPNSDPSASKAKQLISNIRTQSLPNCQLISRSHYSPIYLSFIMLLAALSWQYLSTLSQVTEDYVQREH
Number only, in nM; omit the unit.

Example cases with answers are listed next.
# compound, assayed_target, IC50 (nM)
measured = [
    ("c1ccc(-c2ccc(COc3nsnc3C3CN4CCC3CC4)cc2)cc1 (stereo not shown)", "squalene synthetase (Rattus norvegicus)", 3900),
    ("c1ccc(CCCSc2nsnc2C2CN3CCC2CC3)cc1 (stereo not shown)", "squalene synthetase (Rattus norvegicus)", 900),
    ("c1ccc(CCCSc2nsnc2[C@@H]2CN3CCC[C@@H]2C3)cc1 (single isomer, unassigned)", "squalene synthetase (Rattus norvegicus)", 1100),
]

Query: Provide only the value of recorded IC50 for c1ccc(Oc2ccc(COc3nsnc3C3CN4CCC3CC4)cc2)cc1 (stereo not shown)
Reply: 300
